# Measured On: acetylcholinesterase (AChE, EC3.1.1.7) (Electrophorus electricus, UniProt O42275)
# Construct: purchased Sigma-Aldrich Co. (St. Louis, Mo., USA)
# Sequence (O42275 24-633): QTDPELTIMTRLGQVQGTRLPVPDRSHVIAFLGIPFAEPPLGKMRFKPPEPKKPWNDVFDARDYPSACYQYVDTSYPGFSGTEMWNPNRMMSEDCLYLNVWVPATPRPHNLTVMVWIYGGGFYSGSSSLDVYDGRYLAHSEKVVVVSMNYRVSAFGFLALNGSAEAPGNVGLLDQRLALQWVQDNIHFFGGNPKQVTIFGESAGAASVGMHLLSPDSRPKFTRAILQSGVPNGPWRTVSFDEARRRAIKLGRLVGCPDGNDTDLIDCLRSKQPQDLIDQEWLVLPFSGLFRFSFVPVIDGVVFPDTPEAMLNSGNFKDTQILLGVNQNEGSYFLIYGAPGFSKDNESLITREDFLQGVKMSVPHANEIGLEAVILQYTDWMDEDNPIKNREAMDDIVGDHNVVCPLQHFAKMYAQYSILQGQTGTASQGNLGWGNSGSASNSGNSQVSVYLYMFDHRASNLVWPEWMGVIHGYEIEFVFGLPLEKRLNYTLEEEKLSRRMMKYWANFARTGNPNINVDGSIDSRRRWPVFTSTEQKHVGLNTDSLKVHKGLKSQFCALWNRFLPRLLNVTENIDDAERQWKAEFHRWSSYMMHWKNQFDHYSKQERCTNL
# Procedure Summary: In vitro cholinesterase activity assay (Ellman) and enzyme kinetics, AChE
# Format: biochemical
# Assay Conditions: Dixon plot and Lineweaver plot
Readout: Inhibition type Acetylcholinesterase

[[record]]
molecule = "Cc1cc2c(c(C)c1CCO[C@@H]1OC(CO)[C@@H](O)[C@H](O)C1O)C(=O)[C@H](C)C2 (stereo partly drawn) [Compound 14, (2R)-pteroside B]"
readout = "Inhibition type Acetylcholinesterase"
assay_result = "mixed"

[[record]]
molecule = "Cc1cc2c(c(C)c1CCO)C(=O)[C@H](C)C2"
readout = "Inhibition type Acetylcholinesterase"
assay_result = "mixed"

[[record]]
molecule = "Cc1cc2c(c(C)c1CCO)C(=O)[C@@H](C)[C@H]2O"
readout = "Inhibition type Acetylcholinesterase"
assay_result = "mixed"


====

# Measured On: butyrylcholinesterase (BChE, EC3.1.1.8) (Equus caballus, UniProt P81908)
# Construct: horse serum butyrylcholinesterase (BChE, EC3.1.1.8); purchased Sigma-Aldrich Co. (St. Louis, Mo., USA); host or cells: horse serum
# Sequence (P81908 whole entry): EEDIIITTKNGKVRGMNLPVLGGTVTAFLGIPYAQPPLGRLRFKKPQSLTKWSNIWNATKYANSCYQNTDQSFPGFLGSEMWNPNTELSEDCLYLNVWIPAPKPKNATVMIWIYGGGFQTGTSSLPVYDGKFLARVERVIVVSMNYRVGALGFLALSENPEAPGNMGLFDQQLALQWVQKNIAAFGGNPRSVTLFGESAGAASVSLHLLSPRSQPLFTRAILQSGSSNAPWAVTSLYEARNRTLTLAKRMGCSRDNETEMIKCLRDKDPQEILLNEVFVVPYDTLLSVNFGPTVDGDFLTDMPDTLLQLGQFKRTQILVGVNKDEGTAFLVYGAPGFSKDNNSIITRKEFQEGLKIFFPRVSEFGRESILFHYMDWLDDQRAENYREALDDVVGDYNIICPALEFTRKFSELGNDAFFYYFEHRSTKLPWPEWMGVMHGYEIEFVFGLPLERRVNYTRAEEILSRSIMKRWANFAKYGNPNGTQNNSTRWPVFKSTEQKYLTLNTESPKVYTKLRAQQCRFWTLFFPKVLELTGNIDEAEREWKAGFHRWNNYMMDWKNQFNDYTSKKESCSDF
# Procedure Summary: In vitro cholinesterase activity assay (Ellman) and enzyme kinetics, BChE
# Assay type: biochemical
# Assay Conditions: among the compounds tested
# Description: The reaction started with the addition of 10 μL of DTNB and 10 μL of Ach or Bch. Briefly, the basis for this assay is the hydrolysis of acetylthiocholine by acetylcholinesterase, producing thiocholine that reacts with DTNB. […] Degrees of inhibition were calculated according to […] wherein E and S represent enzyme activities in the presence and absence of a test sample, respectively. The compounds of Table 1 were evaluated for anti-Alzheimer activity. […]
Readout: BChE inhibition / IC50 rank, in words

[[record]]
molecule = "Cc1cc2c(c(C)c1CCO)C(=O)[C@@H](C)[C@@H]2O"
assay_result = "excellent"

[[record]]
molecule = "Cc1cc2c(c(C)c1CCO[C@@H]1OC(CO)[C@@H](O)[C@H](O)C1O)C(=O)[C@H](C)C2 (stereo partly drawn) [Compound 14, (2R)-pteroside B]"
assay_result = "excellent"

[[record]]
molecule = "Cc1cc2c(c(C)c1CCO[C@@H]1OC(CO)[C@@H](O)[C@H](O)C1O)C(=O)C(C)(C)C2 (some centres unmarked) [Compound 20, pteroside Z]"
assay_result = "excellent"


====

# Measured On: butyrylcholinesterase (BChE, EC3.1.1.8) (Equus caballus)
# Construct: horse serum butyrylcholinesterase (BChE, EC3.1.1.8); purchased Sigma-Aldrich Co. (St. Louis, Mo., USA); host or cells: horse serum
# Procedure Summary: In vitro cholinesterase activity assay (Ellman) and enzyme kinetics, BChE
# Format: biochemical
Readout: IC50 (µM)
Numbers only; they are read as µM.

[[record]]
molecule = "CC(=O)C1(/C(C)=C\\C2=CC(=O)C(C)C2)CC1 (stereo not drawn)"
measure_unit = "µM"
assay_result = 72.9


Below: the item to evaluate.
Requested read-out: IC50. Entry: Cc1cc2c(c(C)c1CCO)C(=O)[C@](C)(COC1O[C@H](CO)[C@@H](O)[C@H](O)[C@H]1O)C2 (stereo partly drawn) [Compound 13, (2S)-pteroside A2]
119

====

# Measured On: acetylcholinesterase (AChE, EC3.1.1.7) (Electrophorus electricus, UniProt O42275)
# Construct: purchased Sigma-Aldrich Co. (St. Louis, Mo., USA)
# Procedure Summary: In vitro cholinesterase activity assay (Ellman) and enzyme kinetics, AChE
# Type: biochemical
# Assay Conditions: concentrations up to 125 μM; read-out: IC50 Acetylcholine esterase Mean ± SEM
# Method: The reaction started with the addition of 10 μL of DTNB and 10 μL of Ach or Bch. Briefly, the basis for this assay is the hydrolysis of acetylthiocholine by acetylcholinesterase, producing thiocholine that reacts with DTNB. […] Degrees of inhibition were calculated according to […] wherein E and S represent enzyme activities in the presence and absence of a test sample, respectively. The compounds of Table 1 were evaluated for anti-Alzheimer activity. […]
Each entry below carries its recorded IC50.
The reply should consist of the numeric value with the unit placed after it.

[[record]]
compound = "Cc1cc2c(c(C)c1CCO[C@@H]1OC(CO)[C@@H](O)[C@H](O)C1O)C(=O)[C@@H](C)[C@H]2O (stereo partly drawn) [Compound 15, (2S,3R)-pteroside C]"
measured_on = "acetylcholinesterase (AChE, EC3.1.1.7) (Electrophorus electricus, UniProt O42275)"
readout = "IC50"
assay_result = "9.57 µM"


Below: the item to evaluate.
Requested read-out: IC50. Entry: `Cc1cc2c(c(C)c1CCO)C(=O)[C@](C)(CO)C2`
88.7 µM
